Experiment: Clearance of 99m-Tc-IMP-192 in BALB/c mice
Assay type: in vivo
Settings: BALB/c, mouse, total radioactivity; Muscle, 4 h
Where a SMILES comes first, the peptide text is derived from it. Side-chain parts run from the residue outwards. The star is where a group is joined. DTPA = O=C(O)CN(CCN(CC(=O)O)CC(=O)O)CCN(CC(=O)O)CC(=O)*; X1 = NC(=S)NN=CC(=O)*
EXPERIMENTAL_READOUT: tissue uptake at 4 h (%ID/g)
The reply should contain only the number, in %ID/g.

Read off the recorded tissue uptake at 4 h for CC(=O)N[C@@H](CCCCNC(=O)CN(CCN(CCN(CC(=O)O)CC(=O)O)CC(=O)O)CC(=O)O)C(=O)N[C@@H](Cc1ccc(O)cc1)C(=O)N[C@@H](CCCCNC(=O)CN(CCN(CCN(CC(=O)O)CC(=O)O)CC(=O)O)CC(=O)O)C(=O)N[C@@H](CCCCNC(=O)[C@H](CS)NC(=O)C=NNC(N)=S)C(N)=O [IMP 192] (Ac-K(DTPA)YK(DTPA)K([Cys-X1])-NH2)
0.03
